- measurement-parameters: PAMPA
Starred links: 1 amine or outer side, 2 acyl side, 3 side chain; linkers in the order of their positions; H or OH if unused. Non-standard residues stand in square brackets, D forms with d. Residues, ends and D or L forms follow the SMILES beside them. *: point of attachment. X1 = CCCCC[C@H](O[*:1])C(=O)[*:2]; Ahp(2) = CCCCC[C@H](N)C(=O)O; dNMeA = CN[C@H](C)C(=O)O; Boc = CC(C)(C)OC(=O)*; OBn = c1ccc(CO*)cc1
measurement-kind: Papp
Please answer using the number first and the unit second.

Task: Fill in the blank: the reported Papp of CCCCC[C@H](NC(=O)[C@@H](C)N(C)C(=O)[C@H](CCCCC)OC(=O)[C@@H](C)N(C)C(=O)[C@H](CCCCC)NC(=O)[C@@H](C)N(C)C(=O)[C@H](CCCCC)OC(=O)[C@@H](C)N(C)C(=O)OC(C)(C)C)C(=O)OCc1ccccc1 [Compound L2.3] (Boc-[dNMeA][X1][dNMeA][Ahp(2)][dNMeA][X1][dNMeA][Ahp(2)]-OBn) is ____.
Output: 3.32 ×10⁻⁶ cm/s

---

- Tested on: PAMPA
- measurement-parameters: Papp (x 10^-6 cm/s) / [row 1]; UV detection
Starred links: 1 amine or outer side, 2 acyl side, 3 side chain; linkers in the order of their positions; H or OH if unused. Non-standard residues stand in square brackets, D forms with d. Residues, ends and D or L forms follow the SMILES beside them. *: point of attachment. X2 = CCCCC[C@H](O*)C(=O)OCc1ccccc1; X1 = CCCCC[C@H](O[*:1])C(=O)[*:2]; Ahp(2) = CCCCC[C@H](N)C(=O)O; dNMeA = CN[C@H](C)C(=O)O; Boc = CC(C)(C)OC(=O)*; OBn = c1ccc(CO*)cc1
measurement-kind: Papp (×10⁻⁶ cm/s)
Value expressed in ×10⁻⁶ cm/s; do not type the unit.

The following compounds have reported results that may help.
CCCCC[C@H](NC(=O)[C@@H](C)N(C)C(=O)OC(C)(C)C)C(=O)N(C)[C@H](C)C(=O)N[C@H](CCCCC)C(=O)N(C)[C@H](C)C(=O)O[C@@H](CCCCC)C(=O)N(C)[C@H](C)C(=O)O[C@@H](CCCCC)C(=O)OCc1ccccc1 (stereo in doubt) [Compound L2.2]	2.7
CCCCC[C@H](NC(=O)[C@@H](C)N(C)C(=O)OC(C)(C)C)C(=O)N(C)[C@H](C)C(=O)O[C@@H](CCCCC)C(=O)N(C)[C@H](C)C(=O)O[C@@H](CCCCC)C(=O)N(C)[C@H](C)C(=O)O[C@@H](CCCCC)C(=O)OCc1ccccc1 [Compound L2.1] (Boc-[dNMeA][Ahp(2)][dNMeA][X1][dNMeA][X1][dNMeA]-X2)	3.57
CCCCC[C@H](OC(=O)[C@@H](C)N(C)C(=O)[C@H](CCCCC)OC(=O)[C@@H](C)N(C)C(=O)[C@H](CCCCC)OC(=O)[C@@H](C)N(C)C(=O)[C@H](CCCCC)OC(=O)[C@@H](C)N(C)C(=O)OC(C)(C)C)C(=O)OCc1ccccc1 [Compound L1.4]	1.61
CCCCC[C@H](NC(=O)[C@@H](C)N(C)C(=O)[C@H](CCCCC)OC(=O)[C@@H](C)N(C)C(=O)[C@H](CCCCC)NC(=O)[C@@H](C)N(C)C(=O)[C@H](CCCCC)OC(=O)[C@@H](C)N(C)C(=O)OC(C)(C)C)C(=O)OCc1ccccc1 [Compound L2.3] (Boc-[dNMeA][X1][dNMeA][Ahp(2)][dNMeA][X1][dNMeA][Ahp(2)]-OBn)	3.76

Attention now turns to another entry.
Task: # get_value(readout= Papp, system= PAMPA) for CCCCC[C@H](NC(=O)[C@@H](C)N(C)C(=O)[C@H](CCCCC)NC(=O)[C@@H](C)N(C)C(=O)[C@H](CCCCC)NC(=O)[C@@H](C)N(C)C(=O)[C@H](CCCCC)NC(=O)[C@@H](C)N(C)C(=O)OC(C)(C)C)C(=O)OCc1ccccc1 [Compound L2.5] (Boc-[dNMeA][Ahp(2)][dNMeA][Ahp(2)][dNMeA][Ahp(2)][dNMeA][Ahp(2)]-OBn)
Output: 2.47

---

- measurement-parameters: PAMPA, 500 uM
Starred links: 1 amine or outer side, 2 acyl side, 3 side chain; linkers in the order of their positions; H or OH if unused. Non-standard residues stand in square brackets, D forms with d. Residues, ends and D or L forms follow the SMILES beside them. *: point of attachment. X2 = CCCCC[C@H](O*)C(=O)OCc1ccccc1; X1 = CCCCC[C@H](O[*:1])C(=O)[*:2]; Ahp(2) = CCCCC[C@H](N)C(=O)O; dNMeA = CN[C@H](C)C(=O)O; Boc = CC(C)(C)OC(=O)*; OBn = c1ccc(CO*)cc1
measurement-kind: Δ % diffusion

The following molecules have reported results that may help.
CCCCC[C@@H]1OC(=O)[C@@H](C)N(C)C1=O	↑22%
CCCCC[C@H](OC(=O)[C@@H](C)N(C)C(=O)OC(C)(C)C)C(=O)OCc1ccccc1	↑22%
CCCCC[C@@H]1OC(=O)[C@@H](C)N(C)C(=O)[C@H](CCCCC)OC(=O)[C@@H](C)N(C)C1=O	↑5%
CCCCC[C@H](NC(=O)[C@@H](C)N(C)C(=O)OC(C)(C)C)C(=O)N(C)[C@H](C)C(=O)O[C@@H](CCCCC)C(=O)N(C)[C@H](C)C(=O)O[C@@H](CCCCC)C(=O)N(C)[C@H](C)C(=O)O[C@@H](CCCCC)C(=O)OCc1ccccc1 [Compound L2.1] (Boc-[dNMeA][Ahp(2)][dNMeA][X1][dNMeA][X1][dNMeA]-X2)	↑19%
CCCCC[C@H](OC(=O)[C@@H](C)N(C)C(=O)[C@H](CCCCC)OC(=O)[C@@H](C)N(C)C(=O)[C@H](CCCCC)OC(=O)[C@@H](C)N(C)C(=O)[C@H](CCCCC)OC(=O)[C@@H](C)N(C)C(=O)[C@H](CCCCC)OC(=O)[C@@H](C)N(C)C(=O)OC(C)(C)C)C(=O)OCc1ccccc1	↑4%

Task: Fill in the blank: the reported Δ % diffusion of CCCCC[C@H](OC(=O)[C@@H](C)N(C)C(=O)[C@H](CCCCC)OC(=O)[C@@H](C)N(C)C(=O)[C@H](CCCCC)OC(=O)[C@@H](C)N(C)C(=O)OC(C)(C)C)C(=O)OCc1ccccc1 is ____.
Output: ↑3%

Task: Fill in the blank: the reported Δ % diffusion of CCCCC[C@H](OC(=O)[C@@H](C)N(C)C(=O)[C@H](CCCCC)OC(=O)[C@@H](C)N(C)C(=O)OC(C)(C)C)C(=O)OCc1ccccc1 is ____.
Output: ↑5%

Task: Fill in the blank: the reported Δ % diffusion of CCCCC[C@H](NC(=O)[C@@H](C)N(C)C(=O)[C@H](CCCCC)NC(=O)[C@@H](C)N(C)C(=O)[C@H](CCCCC)NC(=O)[C@@H](C)N(C)C(=O)[C@H](CCCCC)NC(=O)[C@@H](C)N(C)C(=O)OC(C)(C)C)C(=O)OCc1ccccc1 [Compound L2.5] (Boc-[dNMeA][Ahp(2)][dNMeA][Ahp(2)][dNMeA][Ahp(2)][dNMeA][Ahp(2)]-OBn) is ____.
Output: ↑6%

Task: Fill in the blank: the reported Δ % diffusion of CCCCC[C@@H]1NC(=O)[C@@H](C)N(C)C(=O)[C@H](CCCCC)NC(=O)[C@@H](C)N(C)C(=O)[C@H](CCCCC)NC(=O)[C@@H](C)N(C)C(=O)[C@H](CCCCC)NC(=O)[C@@H](C)N(C)C1=O [Compound C2.5] (cyclo([Ahp(2)][dNMeA][Ahp(2)][dNMeA][Ahp(2)][dNMeA][Ahp(2)][dNMeA])) is ____.
Output: ↑6%

---

// reported Papp per item
- Tested on: PAMPA
- measurement-parameters: Papp (x 10^-6 cm/s) – ELSD Detection / [row 15]; ELSD Detection
Value expressed in ×10⁻⁶ cm/s; do not type the unit.

CCCCC[C@@H]1OC(=O)[C@@H](C)N(C)C(=O)[C@H](CCCCC)OC(=O)[C@@H](C)N(C)C(=O)[C@H](CCCCC)OC(=O)[C@@H](C)N(C)C(=O)[C@H](CCCCC)OC(=O)[C@@H](C)N(C)C1=O [Compound C1.4, ent-verticilide]	4.66

Task: Fill in the blank: the reported Papp of CCCCC[C@@H]1OC(=O)[C@@H](C)N(C)C(=O)[C@H](CCCCC)OC(=O)[C@@H](C)N(C)C(=O)[C@H](CCCCC)OC(=O)[C@@H](C)N(C)C1=O [Compound C1.3, ent-verticilide B1] is ____.
Output: 4.01
